Reported self-splicing fitness (ln) values follow for various sequences
# experiment: self-splicing fitness, log relative to wild type (ln ratio); higher = more splicing; Tetrahymena group I intron in knt gene, E. coli kanamycin selection, DiMSum; sequences stand for … in CUCUCU…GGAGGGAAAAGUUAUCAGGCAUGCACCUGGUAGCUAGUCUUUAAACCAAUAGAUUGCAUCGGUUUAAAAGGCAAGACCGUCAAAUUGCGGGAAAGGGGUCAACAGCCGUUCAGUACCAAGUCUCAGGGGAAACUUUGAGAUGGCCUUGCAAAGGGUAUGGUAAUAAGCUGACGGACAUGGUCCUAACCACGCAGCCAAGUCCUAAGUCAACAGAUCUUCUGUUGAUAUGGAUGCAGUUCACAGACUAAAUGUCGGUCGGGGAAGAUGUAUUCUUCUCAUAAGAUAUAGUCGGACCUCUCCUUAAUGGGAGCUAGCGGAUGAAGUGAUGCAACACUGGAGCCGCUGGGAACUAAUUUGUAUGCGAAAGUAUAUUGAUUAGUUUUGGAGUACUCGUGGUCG;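 further: selection with 25 µg/mL kanamycin versus none on LB agar overnight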
# experimental.parameters: 30 °C
Number only, please.

(Q) Consider the sequence shown here: CCACAGCAAUAUUACGCUUU What is its recorded self-splicing fitness (ln)?
(A) -4.05

(Q) Endpoint output: self-splicing fitness (ln) of CACAAGCAAUAUUACGUUGU . Value?
(A) -3.81

(Q) self-splicing fitness (ln) lookup needed for UGAGAGCAAUAUUACGUCUC , thanks.
(A) -1.78
